- TARGET: T1, human CTLA-4-Fc (Chimerigen) (human, UniProt P16410 36-161; P01857 99-330 = IgG part, limits assumed)
- T1 construct: extracellular domain;domain: Fc portion; Bought protein; also called hCTLA-4-Fc; huCTLA-4-Ig
- T1 sequence (P16410 other isoform, or with tags, fused parts or gaps mutant limits assumed): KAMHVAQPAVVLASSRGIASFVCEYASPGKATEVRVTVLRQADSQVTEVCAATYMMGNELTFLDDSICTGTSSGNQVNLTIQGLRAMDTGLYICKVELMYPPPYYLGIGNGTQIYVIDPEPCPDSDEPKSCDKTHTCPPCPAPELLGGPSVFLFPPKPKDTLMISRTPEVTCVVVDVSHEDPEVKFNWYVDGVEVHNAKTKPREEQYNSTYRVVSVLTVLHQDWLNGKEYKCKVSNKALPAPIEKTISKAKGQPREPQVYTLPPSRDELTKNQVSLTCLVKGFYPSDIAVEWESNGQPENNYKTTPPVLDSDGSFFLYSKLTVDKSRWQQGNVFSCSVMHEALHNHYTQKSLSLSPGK
- EXPERIMENT NOTES: SPR; KD listed beside Tm
The entries below come with measured Kd values attached.
Quick note: give the figure in nM, leave out the unit.

BINDER | Kd, nM
hNGAL mutein S140.1-F09 (designed binder, tagged entry not tied to the name; not shown: N-terminal T7 detection tag from vector phNGAL37; C-terminal Strep-tag II from vector phNGAL37) QDSTSDLIPAPPLSKVPLQQNFQDNQFHGKWYVVGLAGNRILRDDQHPMNMYATIYELKEDKSYNVTSVISSHKKCEYTIATFVPGSQPGEFTLGNIKSYGDKTSYLVRVVSTNYNQYAVVFFKLAEDNAEFFAITIYGRTKELASELKENFIRFSKSLGLPENHIVFPVPIDQCIDG | 7.8
hNGAL mutein S140.4-B16 (designed binder, tagged entry not tied to the name; not shown: N-terminal T7 detection tag from vector phNGAL37; C-terminal Strep-tag II from vector phNGAL37) QDSTSDLIPAPPLSKVPLQQNFQDNQFHGKWYVVGLAGNRILRDDQHPMNMYATIYELKEDKSYNVTSVIFPHKKCEYTIATFVPGSQPGEFTLSDIKSYGDKTSYLVRVVSTDYNQYAVVFFKLAEDNAEFFAITIYGRTKELASELKENFIRFSKSLGLPENHIVFPVPIDQCIDG | 68

Next up:
Q: Recorded Kd for hNGAL mutein F92.1-J08 (designed binder, also called CTLA-4-J08) QDSTSDLIPAPPLSKVPLQQNFQDNQFHGKWYVVGLAGNRILRDDQHPMNMYATIYELKEDKSYNVTSVIFPHKKCEYTIATFVPGSQPGEFTLGNIKSYGDKTSYLVRVVSTNYNQYAVVFFKLAEDNAEFFAITIYGRTKELASELKENFIRFSKSLGLPENHIVFPVPIDQCIDGSAWSHPQF , please?
A: 12.8
